Experiment: motor coordination, rotorod method
Format: in vivo
Settings: mouse, ip, mice, i.p., read-out: Loss of Motor Coordination, ED50
measured.endpoint: TD50

> print(dat)
                                   compound        test.value
1  O=C1CCC2(CCC(=O)c3ccccc32)C(=O)N1 (stereo not shown) [Example 1]  500 to 900 mg/kg

====

Assay: acute LD50
Settings: mouse, in vivo, po; mice, orally
measured.endpoint: LD50

> print(dat)
                                   molecule  measured.endpoint    test.value
1  O=C1CCC2(CCC(=O)c3ccccc32)C(=O)N1 (stereo not shown)               LD50  > 2000 mg/kg

Value source: patent US3985888A
